Data origin, for the record: patent US20150342954A1

Target: soluble guanylate cyclase (sGC) (Homo sapiens, UniProt Q02108+Q02153)
Construct: endogenously expressing soluble guanylate cyclase (sGC); endogenous in cells; host or cells: HEK293
Sequence (Q02153 1-619): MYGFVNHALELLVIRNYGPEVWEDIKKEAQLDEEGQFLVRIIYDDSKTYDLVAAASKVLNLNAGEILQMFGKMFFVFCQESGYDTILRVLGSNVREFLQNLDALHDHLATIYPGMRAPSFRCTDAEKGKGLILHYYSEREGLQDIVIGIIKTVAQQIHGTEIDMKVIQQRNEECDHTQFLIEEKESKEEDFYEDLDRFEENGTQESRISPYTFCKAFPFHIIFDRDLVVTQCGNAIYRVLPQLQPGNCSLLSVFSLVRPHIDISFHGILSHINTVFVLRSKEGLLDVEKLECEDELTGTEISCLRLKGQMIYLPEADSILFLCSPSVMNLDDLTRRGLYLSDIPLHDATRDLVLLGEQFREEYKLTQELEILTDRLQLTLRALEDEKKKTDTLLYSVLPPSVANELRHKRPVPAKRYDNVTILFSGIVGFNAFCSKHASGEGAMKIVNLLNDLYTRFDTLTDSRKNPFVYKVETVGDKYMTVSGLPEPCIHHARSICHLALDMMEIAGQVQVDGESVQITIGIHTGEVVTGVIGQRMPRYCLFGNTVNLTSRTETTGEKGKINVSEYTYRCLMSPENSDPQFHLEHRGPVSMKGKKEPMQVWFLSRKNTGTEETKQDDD
Sequence (Q02108 1-690): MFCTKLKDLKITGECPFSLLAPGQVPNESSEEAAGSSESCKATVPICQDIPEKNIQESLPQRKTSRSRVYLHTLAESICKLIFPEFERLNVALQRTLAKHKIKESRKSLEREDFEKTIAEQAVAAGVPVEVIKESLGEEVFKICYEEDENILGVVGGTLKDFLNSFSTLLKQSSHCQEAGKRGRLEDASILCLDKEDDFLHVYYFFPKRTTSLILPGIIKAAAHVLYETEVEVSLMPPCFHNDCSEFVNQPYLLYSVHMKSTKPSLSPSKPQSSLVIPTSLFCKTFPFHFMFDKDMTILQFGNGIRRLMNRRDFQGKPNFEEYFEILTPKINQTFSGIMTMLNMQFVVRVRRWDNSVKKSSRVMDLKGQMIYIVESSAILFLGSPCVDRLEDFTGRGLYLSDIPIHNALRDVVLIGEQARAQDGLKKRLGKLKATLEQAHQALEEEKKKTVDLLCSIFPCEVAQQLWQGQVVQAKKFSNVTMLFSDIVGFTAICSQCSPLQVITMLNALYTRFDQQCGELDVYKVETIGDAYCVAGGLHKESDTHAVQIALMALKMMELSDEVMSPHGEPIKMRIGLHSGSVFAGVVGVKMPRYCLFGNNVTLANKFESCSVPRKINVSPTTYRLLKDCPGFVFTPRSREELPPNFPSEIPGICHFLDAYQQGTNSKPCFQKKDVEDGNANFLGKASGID
Experiment: sGC-HEK-cGMP assay (run with SNP incubation)
Assay type: cell-based
Conditions: in the presence of 10 μM SNP; Table 3F; read-out: HEK assay EC50
Experimental: Biological Activity Measurement by the sGC-HEK-cGMP Assay (Assay Run with SNP Incubation) Human embryonic kidney cells (HEK293), endogenously expressing soluble guanylate cyclase (sGC), were used to evaluate the activity of test compounds. Compounds stimulating the sGC receptor should cause an increase in the intracellular concentration of cGMP. […] EC50 values were calculated from concentration-response curves generated with GraphPad Prism Software.
pEC50: −log10 of the molar value.
Catalogue of pEC50 values

Reference set (6 entries):
INSERT INTO results (molecule, target_entity, reported_property, observed) VALUES
  ('Nc1nc(-c2cc(-c3ccon3)n(Cc3ccccc3F)n2)ncc1NC(=O)C(Cl)(Cl)Cl', 'soluble guanylate cyclase (sGC) (Homo sapiens, UniProt Q02108+Q02153)', 'pEC50', '> 4.70'),
  ('CC1(C)C(=O)Nc2nc(-c3cc(-c4ccon4)n(Cc4ccccc4F)n3)nc(N)c21', 'soluble guanylate cyclase (sGC) (Homo sapiens, UniProt Q02108+Q02153)', 'pEC50', '> 4.70'),
  ('CN(C)Cc1cccc(C(=O)Nc2cnc(-c3cc(-c4ccon4)n(Cc4cccc(F)c4F)n3)nc2N)c1', 'soluble guanylate cyclase (sGC) (Homo sapiens, UniProt Q02108+Q02153)', 'pEC50', '> 4.70'),
  ('Nc1nc(-c2cc(-c3ccon3)n(Cc3ccccc3F)n2)ncc1NC(=O)CCC(F)(F)F', 'soluble guanylate cyclase (sGC) (Homo sapiens, UniProt Q02108+Q02153)', 'pEC50', '> 4.70'),
  ('COc1nc(-c2cc(-c3ccon3)n(Cc3ccccc3F)n2)nc(Cl)c1F', 'soluble guanylate cyclase (sGC) (Homo sapiens, UniProt Q02108+Q02153)', 'pEC50', '4.00 to 4.22'),
  ('N#Cc1nc(-c2cc(-c3ccon3)n(Cc3ccccc3F)n2)ncc1F', 'soluble guanylate cyclase (sGC) (Homo sapiens, UniProt Q02108+Q02153)', 'pEC50', '4.22 to 4.40');

pEC50 for Nc1nc(-c2cc(-c3ccon3)n(Cc3cccc(F)c3F)n2)ncc1NC(=O)c1ccc(C(F)(F)F)cc1 is > 4.70

So, Cn1[nH]c2nc(-c3cc(-c4ccon4)n(Cc4ccccc4F)n3)ncc2c1=O ? Its pEC50 was 4.00 to 4.22

Just so you know, measured pEC50 for Nc1nc(-c2cc(-c3ccon3)n(Cc3cccc(F)c3F)n2)ncc1NC(=O)c1cc[nH]c1 came out at > 4.70

response.value for NC1=NNC2NC(c3cc(-c4ccon4)n(Cc4ccccc4F)n3)=NC=C12 (stereo not shown) (field: pEC50) = > 4.70

GET /value?item= Fc1ccccc1Cn1nc(-c2ncc3[nH]cnc3n2)cc1-c1ccon1 &field=pEC50 returns > 4.70

// field: pEC50; key: Fc1ccccc1Cn1nc(-c2ncc3cn[nH]c3n2)cc1-c1ccon1 ; value = 4.40 to 4.70

The recorded pEC50 for entry Nc1nc(-c2cc(-c3ccon3)n(Cc3cccc(F)c3F)n2)ncc1NC(=O)C12CC3CC(CC(O)(C3)C1)C2 equals > 4.70

So for CC(=O)Nc1n[nH]c2nc(-c3cc(-c4ccon4)n(Cc4ccccc4F)n3)ncc12 , the logged pEC50 turned out to be > 4.70

Reported pEC50 ( CN(C)Cc1ccc(C(=O)Nc2cnc(-c3cc(-c4ccon4)n(Cc4cccc(F)c4F)n3)nc2N)cc1 ) = > 4.70

// sample CC1(C)C(=O)Nc2nc(-c3cc(-c4ccon4)n(Cc4ccccc4F)n3)ncc21 , its pEC50 was > 4.70
